- ASSAY_DETAILS: Antiproliferative activity against gefitinib-resistant human NCI-H1975 cells after 1 to 3 days by MTS assay
- Format: functional

SMILES_REPRESENTATION: O=C(Nc1ccc(O)cc1)c1cc(Cl)c(O)cc1O
GI50: > 50 µM
--
SMILES_REPRESENTATION: Oc1cc(O)c(-c2nc3ccccc3o2)cc1Cl
GI50: > 50 µM
--
SMILES_REPRESENTATION: O=C(Nc1ccccc1)c1cc(Cl)c(O)cc1O
GI50: > 50 µM

###

- STUDY_TARGET: Heat shock protein HSP 90-alpha (Homo sapiens)
- ASSAY_DETAILS: Inhibition of fluorescein isothiocyanate labeled geldanamycin binding to N-terminal domain of full length human recombinant Hsp90alpha expressed in Escherichia coli BL21 (DE3) after 14 hrs by fluorescence polarization assay
pIC50: −log10 of the molar value.
Recorded pIC50, one value per entry.

SMILES_REPRESENTATION: O=C(Nc1ccc(O)cc1)c1cc(Cl)c(O)cc1O
pIC50: < 6.00
--
SMILES_REPRESENTATION: Oc1cc(O)c(-c2nc3ccccc3o2)cc1Cl
pIC50: < 6.00
--
SMILES_REPRESENTATION: O=C(Nc1ccccc1)c1cc(Cl)c(O)cc1O
pIC50: < 6.00
